Each recorded value in this set is attributed to PubChem BioAssay AID1996.

Details: buffer; pH 7.4; 200.0 µM
Short version: solubility kinetic at least 10 µg/mL is 1.0, less is 0.0.

- compound: "COc1ccc(NC(=O)CCCc2nc3ccccc3c(=O)[nH]2)cc1Cl"
  class label: 1.0
- compound: "Cc1cc(NC(=O)COC(=O)c2ccccc2O)no1"
  class label: 0.0
- compound: "CCN(C(=S)NC(=O)c1ccco1)c1cccc2ccccc12"
  class label: 1.0
- compound: "CC1(C)Cc2nc(Cl)c(C(N)=O)cc2CO1"
  class label: 1.0
- compound: "O=C(Nc1ccccc1C(=O)NC1CC1)c1ccccc1"
  class label: 1.0
- compound: "Cc1cccc(C)c1NC(=O)Cn1c(=O)c(N2CCCCC2)c(N)n(C)c1=O"
  class label: 1.0
- compound: "COc1ccc(-c2nc(N)c(C#N)c(-c3cccnc3)c2C)cc1"
  class label: 0.0
- compound: "CCOC(=O)c1cc(C(=O)NC(C)c2ccccc2)c(=O)[nH]c1C (stereo unspecified)"
  class label: 0.0
- compound: "CC(=O)Nc1ccc(S(=O)(=O)Nc2nc3ccccc3nc2N2CCOCC2)cc1"
  class label: 1.0
- compound: "CCOc1ccc(S(=O)(=O)NCCc2ccccn2)cc1"
  class label: 1.0
- compound: "Cc1ccc(S(=O)(=O)Nc2ccc(S(=O)(=O)Nc3nccs3)cc2)cc1C"
  class label: 1.0
